The reported measurements were obtained from patent US10085988B1.

# Tested on: JFH-1 genotype 2a infectious virus (HCVcc)
# Assay Text: HCV (HCVcc) infection / viral entry inhibition on Huh7.5.1 cells
# Format: cell-based, Hepatitis C virus
# Experimental Conditions: Hepatitis C virus, Huh-7.5.1, 48 h
Readout Name: pEC50
Give only the number. pEC50 is defined as minus log10 of concentration in molar units.

Ask: Value lookup for pEC50; key = COc1ccc([C@@]23Oc4cc(OC)cc(OC)c4[C@]2(O)c2nc4n(c(=O)c2[C@H]3c2ccccc2)CCC4)cc1 (racemic) [(±) aglaroxin C (C10), aglaroxin C]
Result: 10.40

Ask: Next up: COc1ccc([C@@]23Oc4cc(OC)cc(OC)c4[C@]2(O)[C@H](O)[C@H](C(=O)N(C)C)[C@H]3c2ccccc2)cc1 [(−) Roc-A]
Result: 8.40

* * *

# Assay Text: Cytotoxicity (CC50) on Huh7.5.1 cells
# Assay type: cell-based
# Experimental Conditions: human; compounds incubated with cells for a total of 48 h on Huh7.5.1 cells
Readout Name: CC50 at 48 h

Ask: Value lookup for CC50 at 48 h; key = COc1ccc([C@@]23Oc4cc(OC)cc(OC)c4[C@]2(O)c2nc4n(c(=O)c2[C@H]3c2ccccc2)CCC4)cc1 (racemic) [(±) aglaroxin C (C10), aglaroxin C]
Result: 20 nM

Ask: Next up: COc1ccc([C@@]23Oc4cc(OC)cc(OC)c4[C@]2(O)[C@H](O)[C@H](C(=O)N(C)C)[C@H]3c2ccccc2)cc1 [(−) Roc-A]
Result: 300 nM

* * *

# Assay Text: Cytotoxicity (CC50) on Huh7.5.1 cells
# Format: cell-based
# Experimental Conditions: human; compounds incubated with cells for a total of 3 h on Huh7.5.1 cells
Readout Name: CC50 at 3 h (µM)
# unit: µM | format: bare number

Ask: Value lookup for CC50 at 3 h; key = COc1ccc([C@@]23Oc4cc(OC)cc(OC)c4[C@]2(O)c2nc4n(c(=O)c2[C@H]3c2ccccc2)CCC4)cc1 [(−)-aglaroxin C]
Result: 12

Ask: Next up: COc1ccc([C@@]23Oc4cc(OC)cc(OC)c4[C@]2(O)c2nc4n(c(=O)c2[C@H]3c2ccccc2)CCC4)cc1 (racemic) [(±) aglaroxin C (C10), aglaroxin C]
Result: 10

Ask: Next up: COc1ccc([C@@]23Oc4cc(OC)cc(OC)c4[C@]2(O)[C@H](O)[C@H](C(=O)N(C)C)[C@H]3c2ccccc2)cc1 [(−) Roc-A]
Result: 50

Ask: Next up: COc1ccc([C@]23Oc4cc(OC)cc(OC)c4[C@@]2(O)c2nc4n(c(=O)c2[C@@H]3c2ccccc2)CCC4)cc1 [(+)-aglaroxin C]
Result: 100

Ask: Next up: COc1ccc([C@]23Oc4cc(OC)cc(OC)c4[C@@]2(O)[C@@H](O)[C@@H](C(=O)N(C)C)[C@@H]3c2ccccc2)cc1 [(+) Roc-A]
Result: 300
